target: UniProt P03372; test: fluorescent estrogen displacement from ERalpha – cell-based, Cos7 ERalpha-GFP, flow cytometry, dose response (AID 1223); conditions: E2-Alexa633 competitive binding, at 10 µM (top of the series)
Sequence (P03372 whole entry, looked up): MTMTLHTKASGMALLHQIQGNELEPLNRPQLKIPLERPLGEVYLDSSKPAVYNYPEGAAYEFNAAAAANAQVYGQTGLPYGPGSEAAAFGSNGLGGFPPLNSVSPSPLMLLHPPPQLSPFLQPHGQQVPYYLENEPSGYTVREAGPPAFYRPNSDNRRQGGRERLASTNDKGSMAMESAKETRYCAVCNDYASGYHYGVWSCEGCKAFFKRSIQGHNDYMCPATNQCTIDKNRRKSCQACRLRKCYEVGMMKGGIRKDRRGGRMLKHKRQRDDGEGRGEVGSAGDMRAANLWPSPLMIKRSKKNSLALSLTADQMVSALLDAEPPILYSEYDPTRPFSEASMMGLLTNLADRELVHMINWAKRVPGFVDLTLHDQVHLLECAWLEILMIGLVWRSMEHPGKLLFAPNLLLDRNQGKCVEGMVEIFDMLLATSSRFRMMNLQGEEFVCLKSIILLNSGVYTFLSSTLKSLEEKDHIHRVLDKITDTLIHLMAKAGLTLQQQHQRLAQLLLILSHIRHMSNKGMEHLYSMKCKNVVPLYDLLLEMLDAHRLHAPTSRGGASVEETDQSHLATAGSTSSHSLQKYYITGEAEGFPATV
Activity calls are given as the source filed them.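 Rule for the calls: active = total score of at least 50 of 100, built from tracer displacement at 10 µM, potency and curve span; inactive = total score under 50.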
Outcomes: yes (1) (active), no (0) (inactive)

[[record]]
molecule = "O=C(O)c1ccc2c(c1)C1C(Cl)C(Sc3ccccc3[N+](=O)[O-])CC1C(c1cccc([N+](=O)[O-])c1)N2 (stereo not drawn)"
assigned_category = "no (0)"

[[record]]
molecule = "CCCCOC(=O)c1c(C)oc2ccc(NS(=O)(=O)c3ccc4c5c(cccc35)C(=O)N4)cc12"
assigned_category = "no (0)"

[[record]]
molecule = "COc1ccc(/C=N/NC(=O)c2nc(-c3ccccc3)cc(-c3ccccc3)n2)cc1O"
assigned_category = "yes (1)"

[[record]]
molecule = "O=S(=O)(NCCc1csc(-c2cccnc2)n1)c1ccc(Cl)s1"
assigned_category = "no (0)"

[[record]]
molecule = "C[C@H]1CCC[C@@H](O)CCC/C=C/c2cc(O)cc(O)c2C(=O)O1"
assigned_category = "no (0)"

[[record]]
molecule = "CCNC(=O)c1ccc2c(c1)C1C3CCC(C3)C1C(c1ccccc1)N2 (stereo not drawn)"
assigned_category = "no (0)"

[[record]]
molecule = "Nc1ccc(-c2nc3ccc([N+](=O)[O-])cc3[nH]2)cc1"
assigned_category = "yes (1)"

[[record]]
molecule = "CCc1nc2sc3ccccc3c(=O)c2c(=O)n1Cc1ccco1"
assigned_category = "no (0)"

[[record]]
molecule = "O=C1NC(c2ccc(Br)cc2)Nc2sc3c(c21)CCC3 (stereo not drawn)"
assigned_category = "no (0)"

[[record]]
molecule = "CCCCCCNC(=O)c1cc(-c2ccco2)nc2ccccc12"
assigned_category = "no (0)"

[[record]]
molecule = "Cc1ccc(C(=O)N/N=C/c2ccc([N+](=O)[O-])s2)cc1"
assigned_category = "no (0)"

[[record]]
molecule = "Cc1nn(-c2ccccc2)c(/N=C/c2ccc(O)cc2)c1-c1ccccc1"
assigned_category = "no (0)"

[[record]]
molecule = "Nc1ncnc2c1ncn2C1CCC(CO)C(O)C1 (stereo not drawn)"
assigned_category = "no (0)"

